Entries with their measured log10 Ki, system Cannabinoid receptor 2 (Homo sapiens, UniProt P34972):
measured quantity: log10 Ki (log10 of the value in nM)

compound: N#Cc1ccc(Cn2cc(/C=C3/C(=O)C4CCN3CC4)c3ccccc32)cc1
log10 Ki: 2.06
//
compound: O=C1/C(=C/c2cn(Cc3ccccc3)c3ccccc23)N2CCC1CC2
log10 Ki: 1.07
//
compound: COC(=O)c1ccc2c(/C=C3/C(=O)C4CCN3CC4)cn(Cc3ccccc3)c2c1
log10 Ki: 0.40
//
compound: O=C1/C(=C/c2cn(Cc3ccccc3Br)c3ccccc23)N2CCC1CC2
log10 Ki: 2.52
//
compound: OC1/C(=C/c2cn(Cc3ccccc3)c3ccccc23)N2CCC1CC2 (racemic)
log10 Ki: 1.74
//
compound: COC(=O)c1ccc(Cn2cc(/C=C3/C(=O)C4CCN3CC4)c3ccccc32)cc1
log10 Ki: 2.77
//
compound: O=C1/C(=C/c2cn(Cc3ccc(Cl)cc3)c3ccccc23)N2CCC1CC2
log10 Ki: 1.31
//
compound: O=C1/C(=C/c2cn(Cc3ccc(F)cc3)c3ccccc23)N2CCC1CC2
log10 Ki: 0.12
//
compound: O/N=C1/C(=C/c2cn(Cc3ccccc3)c3ccccc23)N2CCC1CC2
log10 Ki: 1.84
